B1: library; numbered along this chain (parent)
chain: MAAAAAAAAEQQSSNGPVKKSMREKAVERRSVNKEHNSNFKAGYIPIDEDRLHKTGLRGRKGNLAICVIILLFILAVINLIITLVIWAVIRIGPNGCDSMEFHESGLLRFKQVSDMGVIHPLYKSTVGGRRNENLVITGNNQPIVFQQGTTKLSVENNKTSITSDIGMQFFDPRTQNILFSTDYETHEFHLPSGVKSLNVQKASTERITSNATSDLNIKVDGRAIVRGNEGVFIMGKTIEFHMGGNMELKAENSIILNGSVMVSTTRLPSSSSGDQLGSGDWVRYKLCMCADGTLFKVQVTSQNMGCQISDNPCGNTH

- Variants of: B1
- protocol description: SGCB cell-surface expression functional score (HA stain, bin4 vs bin1, normalised to synonymous) (log10 ratio); higher = more cell-surface SGCB (functional)
experimental readout: SGCB cell-surface expression functional score (log10)

V145I | 0.52
F146D | -1.36
T186S | -0.18
S254D | -0.152
L198D | -2.43

Which SGCB cell-surface expression functional score (log10) reading was recorded for the variant C314Y ?
-0.32

Would you kindly share the measured SGCB cell-surface expression functional score (log10) for Q299H ?
-0.17

Returns the measured SGCB cell-surface expression functional score (log10) for the input variant. Input: Q147K
0.26

Query (variant): E252K ; field requested: SGCB cell-surface expression functional score (log10)
0.57

I would be grateful if you could share the reported SGCB cell-surface expression functional score (log10) for S125Y .
-0.79

Return reported SGCB cell-surface expression functional score (log10); argument: N95C
-0.17

Reported SGCB cell-surface expression functional score (log10) for H187N : what is it?
-0.57
